molecular target: HLA-B*51:01; test: IEDB peptide-MHC binding, purified MHC/competitive/radioactivity; filed as Kd, often an IC50 or EC50 that approximates it; bounds were set here for any values at or beyond the usual limits of such assays; conditions: source organism: Mammarenavirus lassaense
pKd: −log10 of the molar value.
property: pKd

• IPFNVVTAM = 5.37

----------
molecular target: HLA-A*02:03; assay: IEDB peptide-MHC binding, purified MHC/competitive/radioactivity; filed as Kd, often an IC50 or EC50 that approximates it; bounds were set here for any values at or beyond the usual limits of such assays; conditions: source organism: Mammarenavirus guanaritoense
pKd: −log10 of the molar value.
property: pKd

• KNAGYLVGR = ≤ 4.11
